Values from patent US8138189B2

- TARGET SYSTEM: full length human recombinant glucocorticoid receptor (Homo sapiens)
- Construct: partially purified full length human recombinant glucocorticoid receptor; purchased Panvera/Invitrogen PV4302
- PROTOCOL NOTES: Glucocorticoid Receptor Binding Assay (fluorescence polarization competitor assay, Fluormone GS Far Red tracer)
Each entry below lists one item and its recorded log10 Ki value.
MEASURED PROPERTY: log10 Ki (log10 of the value in nM)

| COMPOUND | TARGET SYSTEM | MEASURED PROPERTY | REPORTED |
| --- | --- | --- | --- |
| CC(c1ccc(Oc2ccc(OCC(=O)O)cc2)cc1Cl)C(O)(c1ccnc(Cl)c1)C(F)(F)F (stereo not shown) | full length human recombinant glucocorticoid receptor (Homo sapiens) | log10 Ki | 0.15 |
| C[C@@H](c1ccc(-c2ccc(C(=O)O)c(Cl)c2)cc1Cl)[C@](O)(c1ccc(=O)n(C)c1)C(F)(F)F (stereo in doubt) | full length human recombinant glucocorticoid receptor (Homo sapiens) | log10 Ki | 1.26 |
| Cc1cc([C@@](O)([C@@H](C)c2ccc(Oc3ccc(Cl)c(C(=O)O)c3)cc2Cl)C(F)(F)F)cn(C)c1=O (stereo in doubt) | full length human recombinant glucocorticoid receptor (Homo sapiens) | log10 Ki | -0.15 |
| CC(c1ccc(Oc2ccccc2C(=O)O)cc1Cl)C(O)(c1ccnc(Cl)c1)C(F)(F)F (stereo not shown) | full length human recombinant glucocorticoid receptor (Homo sapiens) | log10 Ki | 1.55 |
| Cc1cc(C(O)(C(C)c2ccc(-c3ccc(C(=O)O)cn3)cc2Cl)C(F)(F)F)ccn1 (stereo not shown) | full length human recombinant glucocorticoid receptor (Homo sapiens) | log10 Ki | 2.53 |
| C[C@H](c1cc(Oc2ccc(C(=O)O)nn2)ccc1Cl)[C@@](O)(c1ccnc(Cl)c1)C(F)(F)F (stereo in doubt) | full length human recombinant glucocorticoid receptor (Homo sapiens) | log10 Ki | 2.61 |
| COC(=O)c1ccc(COc2ccc(C(C)C(O)(c3ccnc(Cl)c3)C(F)(F)F)c(Cl)c2)nc1 (stereo not shown) | full length human recombinant glucocorticoid receptor (Homo sapiens) | log10 Ki | 0.81 |
| CC(c1ccc(NC(=O)c2cccc(CC(=O)O)c2)cc1Cl)C(O)(c1ccnc(Cl)c1)C(F)(F)F (stereo not shown) | full length human recombinant glucocorticoid receptor (Homo sapiens) | log10 Ki | 1.97 |
| CC(c1ccc(OCc2ccc(C(=O)O)cn2)cc1Cl)C(O)(c1ccnc(Cl)c1)C(F)(F)F (stereo not shown) | full length human recombinant glucocorticoid receptor (Homo sapiens) | log10 Ki | 1.11 |
| CCOC(=O)c1ccc(COc2ccc(C(C)C(O)(c3ccnc(C)c3)C(F)(F)F)c(Cl)c2)cc1 (stereo not shown) | full length human recombinant glucocorticoid receptor (Homo sapiens) | log10 Ki | 0.91 |
| CCn1cc([C@@](O)([C@@H](C)c2ccc(-c3ccc(C(=O)OC)c(F)c3)cc2Cl)C(F)(F)F)ccc1=O (stereo in doubt) | full length human recombinant glucocorticoid receptor (Homo sapiens) | log10 Ki | 1.08 |
| CCOC(=O)C(C)(C)Oc1ccc([C@H](C)[C@](O)(c2ccc(=O)n(C)c2)C(F)(F)F)c(Cl)c1Cl (relative stereo) | full length human recombinant glucocorticoid receptor (Homo sapiens) | log10 Ki | 1.16 |
| COC(=O)c1ccc(Oc2ccc(C(C)C(O)(c3ccnc(Cl)c3)C(F)(F)F)c(Cl)c2)nc1 (stereo not shown) | full length human recombinant glucocorticoid receptor (Homo sapiens) | log10 Ki | 1.03 |
| C[C@@H](c1cc(Oc2ccc(C(=O)O)c(Cl)c2)ccc1Cl)[C@](O)(c1ccc(=O)n(C)c1)C(F)(F)F (stereo in doubt) | full length human recombinant glucocorticoid receptor (Homo sapiens) | log10 Ki | 1.71 |
| COC(=O)Cc1ccc(COc2ccc([C@H](C)[C@](O)(c3cnc4ccccc4c3)C(F)(F)F)c(Cl)c2)cc1 (stereo in doubt) | full length human recombinant glucocorticoid receptor (Homo sapiens) | log10 Ki | 0.56 |
| Cc1cc([C@@](O)([C@@H](C)c2ccc(Oc3ccc(C(=O)O)cn3)cc2Cl)C(F)(F)F)cn(C)c1=O (racemic) [Example 218] | full length human recombinant glucocorticoid receptor (Homo sapiens) | log10 Ki | 0.15 |
| Cc1cc(C(O)(C(C)c2ccc(OCc3ccc(C(=O)O)cc3)cc2Cl)C(F)(F)F)ccn1 (stereo not shown) | full length human recombinant glucocorticoid receptor (Homo sapiens) | log10 Ki | 0.60 |
| COC(=O)c1ccc(-c2ccc([C@H](C)[C@](O)(c3ccc(OC)nc3)C(F)(F)F)c(Cl)c2)cc1Cl (stereo in doubt) | full length human recombinant glucocorticoid receptor (Homo sapiens) | log10 Ki | 1.86 |
| CCOC(=O)c1cc(Oc2ccc([C@H](C)[C@](O)(c3cc(C)c(=O)n(C)c3)C(F)(F)F)c(Cl)c2)ccc1F (stereo in doubt) | full length human recombinant glucocorticoid receptor (Homo sapiens) | log10 Ki | 0.28 |

---

- TARGET SYSTEM: full length human recombinant glucocorticoid receptor (Homo sapiens, UniProt P04150)
- Construct: partially purified full length human recombinant glucocorticoid receptor; purchased Panvera/Invitrogen PV4302
- Sequence (P04150 whole entry): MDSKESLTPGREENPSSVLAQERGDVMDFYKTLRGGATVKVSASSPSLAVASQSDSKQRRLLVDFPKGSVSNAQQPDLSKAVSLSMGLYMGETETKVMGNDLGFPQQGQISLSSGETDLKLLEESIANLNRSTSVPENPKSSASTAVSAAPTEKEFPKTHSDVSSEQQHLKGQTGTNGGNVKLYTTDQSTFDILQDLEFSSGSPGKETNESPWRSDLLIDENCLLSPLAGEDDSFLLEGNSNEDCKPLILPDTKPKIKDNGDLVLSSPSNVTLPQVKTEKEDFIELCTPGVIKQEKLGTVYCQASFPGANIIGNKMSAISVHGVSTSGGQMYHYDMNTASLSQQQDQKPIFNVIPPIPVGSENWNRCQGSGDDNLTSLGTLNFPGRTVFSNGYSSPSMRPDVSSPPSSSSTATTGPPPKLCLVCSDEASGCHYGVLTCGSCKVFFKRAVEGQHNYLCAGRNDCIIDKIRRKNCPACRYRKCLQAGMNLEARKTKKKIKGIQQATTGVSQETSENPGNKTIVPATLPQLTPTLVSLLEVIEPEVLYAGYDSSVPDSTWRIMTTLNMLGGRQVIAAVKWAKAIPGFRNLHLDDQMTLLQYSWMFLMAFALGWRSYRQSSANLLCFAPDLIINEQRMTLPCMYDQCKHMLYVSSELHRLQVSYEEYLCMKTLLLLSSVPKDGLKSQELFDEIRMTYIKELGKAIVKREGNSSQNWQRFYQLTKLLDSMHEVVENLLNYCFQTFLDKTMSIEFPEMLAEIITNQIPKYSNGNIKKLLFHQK
- PROTOCOL NOTES: Glucocorticoid Receptor Binding Assay (fluorescence polarization competitor assay, Fluormone GS Far Red tracer)

| MOLECULE | UNIT ABBREVIATION | Ki |
| --- | --- | --- |
| CCOC(=O)c1cc(COc2ccc(C(C)C(O)(c3ccnc(C)c3)C(F)(F)F)c(Cl)c2)ccn1 (stereo not shown) | nM | 9.4 |
| Cc1cnc([C@](O)([C@H](C)c2ccc(OCc3ccc(C(=O)O)cc3)cc2Cl)C(F)(F)F)cn1 | nM | 8.2 |
| C[C@H](c1ccc(-c2ccc(C(=O)O)cc2)cc1Cl)[C@@](O)(c1ccnc(-c2ccc(C(=O)O)cc2)c1)C(F)(F)F (stereo in doubt) | nM | 242 |
| C[C@H](c1ccc(Oc2ncc(C(=O)O)cc2Cl)cc1Cl)[C@@](O)(c1ccc(C#N)n1C)C(F)(F)F (stereo in doubt) | nM | 3.9 |

---

- TARGET SYSTEM: full length human recombinant glucocorticoid receptor (Homo sapiens)
- Construct: partially purified full length human recombinant glucocorticoid receptor; purchased Panvera/Invitrogen PV4302
- PROTOCOL NOTES: Glucocorticoid Receptor Binding Assay (fluorescence polarization competitor assay, Fluormone GS Far Red tracer)
pKi: −log10 of the molar value.

| MOLECULE | pKi |
| --- | --- |
| Cc1cc([C@@](O)([C@@H](C)c2ccc(Oc3ncc(C(=O)O)c(C(F)(F)F)n3)cc2Cl)C(F)(F)F)cn(C)c1=O (stereo in doubt) | 8.74 |
| CC(c1ccc(Oc2ccc(C(=O)O)cc2F)cc1Cl)C(O)(c1ccnc(Cl)c1)C(F)(F)F (stereo not shown) | 8.92 |
| COc1cc(C(=O)O)ccc1COc1ccc(C(C)C(O)(c2ccncc2)C(F)(F)F)c(Cl)c1 (stereo not shown) | 7.10 |
| Cc1cc(C(O)(C(C)c2ccc(CCc3ccc(C(=O)O)cc3)cc2Cl)C(F)(F)F)ccn1 (stereo not shown) | 7.61 |

---

- TARGET SYSTEM: full length human recombinant glucocorticoid receptor (Homo sapiens, UniProt P04150)
- Construct: partially purified full length human recombinant glucocorticoid receptor; purchased Panvera/Invitrogen PV4302
- PROTOCOL NOTES: Glucocorticoid Receptor Binding Assay (fluorescence polarization competitor assay, Fluormone GS Far Red tracer)
pKi: −log10 of the molar value.

| MOLECULE | pKi |
| --- | --- |
| CCOC(=O)c1ccc(COc2ccc([C@@H](C)[C@@](O)(c3cnc(C)cn3)C(F)(F)F)c(Cl)c2)cc1 [Example 5] | 6.38 |
| Cc1cc(C(O)(C(C)c2ccc(OCc3ccc(C(=O)O)nc3)cc2Cl)C(F)(F)F)ccn1 (stereo not drawn) | 7.39 |
| CCOC(=O)c1ccc(COc2ccc(C(C)C(O)(c3ccnc(C)c3)C(F)(F)F)c(Cl)c2)cn1 (stereo not drawn) | 8.04 |
